// data source = ChEMBL document CHEMBL1130342

Biological target: Alpha-2A adrenergic receptor (Homo sapiens, UniProt P08913)
Sequence (P08913 whole entry): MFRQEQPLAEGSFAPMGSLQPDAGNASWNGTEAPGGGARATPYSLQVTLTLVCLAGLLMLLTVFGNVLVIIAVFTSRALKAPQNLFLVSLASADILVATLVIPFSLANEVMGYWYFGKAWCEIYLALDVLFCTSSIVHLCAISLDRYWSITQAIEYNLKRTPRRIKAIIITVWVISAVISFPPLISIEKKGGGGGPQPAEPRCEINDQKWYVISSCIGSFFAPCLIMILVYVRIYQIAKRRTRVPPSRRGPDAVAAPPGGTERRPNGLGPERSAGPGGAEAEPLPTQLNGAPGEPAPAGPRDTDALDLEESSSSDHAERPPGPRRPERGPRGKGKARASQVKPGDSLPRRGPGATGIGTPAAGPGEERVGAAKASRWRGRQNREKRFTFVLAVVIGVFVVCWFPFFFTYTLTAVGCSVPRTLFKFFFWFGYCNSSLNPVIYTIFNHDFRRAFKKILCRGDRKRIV
Assay: Effective concentration at Alpha-2A adrenergic receptor from CHO-C10 cells
pEC50: −log10 of the molar value.

smilesRepr: Cc1c(Nc2ncc[nH]2)ccc2c1NCCO2
qualifier: =
pEC50: 6.91

smilesRepr: COc1c(C(C)(C)C)cc(C)c(Nc2ncc[nH]2)c1C
qualifier: <
pEC50: 5.30

smilesRepr: Cc1c(Nc2ncc[nH]2)ccc2c1OCCO2
qualifier: =
pEC50: 8.06

* * *

# IA per entry
biological target: Alpha-2B adrenergic receptor (Rattus norvegicus); assay: Intrinsic activity relative to Norepinephrine at Alpha-2B adrenergic receptor from CHO-RNG cells; assay type: cell-based
measuredProperty: IA

smilesRepr: Cc1c(Nc2ncc[nH]2)ccc2c1OCCO2
result: 1
--
smilesRepr: COc1c(C(C)(C)C)cc(C)c(Nc2ncc[nH]2)c1C
result: 0.65
--
smilesRepr: Cc1c(Nc2ncc[nH]2)ccc2c1NCCO2
result: 0.88
--
smilesRepr: Brc1c(NC2=NCCN2)ccc2nccnc12
result: 0.89

* * *

Quick list: Ki per entry.
molecular target: Adrenergic receptor alpha-1 (Homo sapiens, UniProt P35348+P25100+P35368); assay: Displacement of prazosin from Alpha-1 adrenergic receptors of human cerebral cortex homogenate; type: tissue-based

smilesRepr: c1c[nH]c(Nc2ccc3nccnc3c2)n1
Ki: > 100 µM
--
smilesRepr: Cc1c(Nc2ncc[nH]2)ccc2nccnc12
Ki: > 28 µM
--
smilesRepr: Brc1c(Nc2ncc[nH]2)ccc2nccnc12
Ki: > 100 µM
